# normalized growth per entry
test: chemical genetic growth profiling, strain panel (AID 1159580);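 also: tested at 20 µM; growth read once vehicle control cultures reached saturation at 30 °C; 1 = growth at the plate median or of vehicle wells; lower values mean less growth of the strain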; conditions: S. cerevisiae deletion strains, growth OD, locus YNR049C, strain mso1, active compounds read low
Out of some 5,500 compounds screened, about 2,000 (36%) were called active. Roughly 18% stayed inconclusive and do not appear here. Some of the results follow.
Please state the value as a number alone, without comment.

CCC(C)C(=O)O[C@@H]1C[C@@]2(C)[C@H](c3ccoc3)OC(=O)CC23OC2(C)OC34[C@H](OC(=O)C(C)C)[C@@]3(O)[C@@H](OC(=O)C5(C)OC5C)[C@@]5(C)C[C@]3(O)[C@@](C)([C@H]5CC(=O)OC)C14O2 (stereo partly drawn); 1.01
OCC(O)CN1CCN(c2ccccc2)CC1 (stereo not drawn); 0.974

Query string: Give normalized growth for the following compound: CCC(C)C(=O)O[C@@H]1C[C@@]2(C)[C@H](c3ccoc3)OC(=O)CC23OC2(C)O[C@]14[C@]1(C)[C@@H](CC(=O)OC)C5(C)CC1(O)[C@](O)(C5OC(=O)C1(C)OC1C)[C@@H](OC(C)=O)[C@]34O2 (stereo partly drawn)
Result string: 0.999

* * *

# normalized growth per entry
experiment: chemical genetic growth profiling, strain panel (AID 1159580); conditions: S. cerevisiae deletion strains, growth OD, locus YJL187C, strain SWE1, active compounds read low
Out of some 5,500 compounds screened, about 2,000 (36%) were called active. About 18% were inconclusive and are not listed. Some of the results follow.
Please state the value as a number alone, without comment.

Query string: Give normalized growth for the following molecule: COc1cc(CNC(=O)CCCC/C=C/C(C)C)ccc1O
Result string: 0.994

Query string: Give normalized growth for the following molecule: COc1ccc2c(c1)OC/C(=C/c1ccc(OC)c(OC)c1)C2=O
Result string: 0.973

Query string: Give normalized growth for the following molecule: COc1ccc(C(=O)CC(=O)O)c2c1C=CC(C)(C)O2
Result string: 1.01

Query string: Give normalized growth for the following molecule: CCCCCCCCC(=O)NCc1ccc(O)c(OC)c1
Result string: 1.02

Query string: Give normalized growth for the following molecule: O=c1c(-c2ccc(O)cc2)coc2cc(O)ccc12
Result string: 0.984

Query string: Give normalized growth for the following molecule: OCCc1ccccc1
Result string: 0.987

Query string: Give normalized growth for the following molecule: COc1ccc(C2CNC(=O)C2)cc1OC1CCCC1 (configuration not stated)
Result string: 1.01

* * *

experiment: chemical genetic growth profiling, strain panel (AID 1159580); details: S. cerevisiae deletion strains, growth OD, locus YNR030W, strain Alg12
Out of some 5,500 compounds screened, about 2,000 (36%) were called active. Not shown: some 18% with an inconclusive outcome. Cut-off read from the data, not from the text of the source: active = normalized growth mostly below about 0.91 (no sharp cut-off); inconclusive = no clear call, values can overlap the other calls; inactive = mostly above about 0.92. The list shows a part of the results.
In this exercise, the only acceptable responses are active, inactive

Cc1onc(-c2c(Cl)cccc2Cl)c1-c1nc(-c2ccc3c(c2)OCCO3)cs1; inactive
CCOC(=O)N=Nc1c(O)[nH]c2ccc(F)cc12; inactive
c1ccc(OCCOc2ccccn2)nc1; inactive

Query string: // return assay outcome for CSc1nc(N)n(-c2ccccc2)n1
Result string: inactive

Query string: // return assay outcome for CCOC(=O)Cc1csc(N=CNO)n1
Result string: inactive

Query string: // return assay outcome for Cc1cc(=O)n2[nH]cnc2n1
Result string: inactive

Query string: // return assay outcome for Cc1ccc(C)n1-c1ccc(C(=O)NNS(=O)(=O)c2ccc(Cl)cc2)cc1
Result string: inactive

Query string: // return assay outcome for N#CCCN(CC1CCCO1)C(=S)Nc1cc(C(F)(F)F)cc(C(F)(F)F)c1 (configuration not stated)
Result string: active

Query string: // return assay outcome for O=C(O)c1cncc(C#Cc2ccccc2)c1
Result string: inactive

Query string: // return assay outcome for O=C(CSc1ccc(Cl)cc1)Nc1ccc(F)cc1
Result string: active

Query string: // return assay outcome for S=C1NCN(CCN2CCCC2)CN1
Result string: inactive

Query string: // return assay outcome for C/C(=N/O)c1sc2nc(C(F)(F)F)nn2c1C
Result string: inactive

Query string: // return assay outcome for O=C(c1c(F)cccc1F)N1CCN(C(=O)c2c(F)cccc2F)CC1
Result string: inactive

Query string: // return assay outcome for Cn1c2c(c(=O)n(C)c1=O)CN(CCCCCCO)CN2
Result string: inactive

Query string: // return assay outcome for O=[N+]([O-])c1ccc(N2CCCCC2)nc1N1CCCCC1
Result string: inactive

Query string: // return assay outcome for Cc1nn(C)c(C)c1[N+](=O)[O-]
Result string: inactive

Query string: // return assay outcome for OC1(c2ccc(F)cc2)Cc2ccccc2C2=NCCN21 (configuration not stated)
Result string: inactive

* * *

experiment: chemical genetic growth profiling, strain panel (AID 1159580); settings: S. cerevisiae deletion strains, growth OD, locus YCL016C, strain dcc1, active compounds read low
Out of some 5,500 compounds screened, about 2,000 (36%) were called active. Not shown: some 18% with an inconclusive outcome. Some of the results follow.
# normalized growth per entry
Please state the value as a number alone, without comment.

// solved cases for normalized growth follow
COC(=O)C[C@H]1C2(C)CC34OC5(C)O[C@@]6([C@H](OC(C)=O)C(OC(C)=O)[C@]7(C)C(/C(=C(/O)C(C)C)C(=O)O[C@H]7c7ccoc7)[C@@]6(O5)[C@H](OC(C)=O)[C@@]3(O)C2OC(=O)C(C)C)[C@]14C (some centres not stated); 1.02
C=C1C2CC[C@@]3(C)[C@H](c4ccoc4)OC(=O)C[C@]13O[C@H]1CC(=O)C(C)(C)[C@H](C(OC(C)=O)C(=O)OC)[C@@]21C (some centres not stated); 0.983
Oc1cc(O)c2c(c1)O[C@H](c1cc(O)c(O)c(O)c1)[C@H](O)C2; 1.02

Query string: Give normalized growth for the following molecule: Oc1cc(O)c2c(c1)O[C@H](c1ccc(O)c(O)c1)[C@H](O)C2
Result string: 1

Query string: Give normalized growth for the following molecule: Oc1ccc2c(c1)O[C@H](c1ccc(O)c(O)c1)[C@@H](O)C2
Result string: 1.02

Query string: Give normalized growth for the following molecule: CCC(C)C(=O)O[C@@H]1C[C@@]2(C)[C@H](c3ccoc3)OC(=O)CC23OC2(C)OC34[C@H](OC(=O)C(C)C)[C@@]3(O)[C@@H](OC(=O)C5(C)OC5C)[C@@]5(C)C[C@]3(O)[C@@](C)([C@H]5CC(=O)OC)C14O2 (some centres not stated)
Result string: 1.01

Query string: Give normalized growth for the following molecule: Oc1cc(O)c2c(c1)O[C@H](c1ccc(O)c(O)c1)[C@@H](O)C2
Result string: 1.01

* * *

experiment: chemical genetic growth profiling, strain panel (AID 1159580);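 also: tested at 20 µM; growth read once vehicle control cultures reached saturation at 30 °C; 1 = growth at the plate median or of vehicle wells; lower values mean less growth of the strain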; details: S. cerevisiae deletion strains, growth OD, locus YGL078C, strain dbp3, active compounds read low
Screen size: about 5,500 compounds; about 2,000 (36%) were called active. Another 18% or so got no clear call; they are omitted. The list shows a part of the results.
# normalized growth per entry
Please state the value as a number alone, without comment.

Query string: Give normalized growth for the following compound: COc1ccc(-c2coc3cc(OC)ccc3c2=O)cc1
Result string: 0.936

Query string: Give normalized growth for the following compound: CCCCCCCCCCC[C@@H](C[C@H]1OC(=O)[C@H]1CCCCCC)OC(=O)[C@@H](CC(C)C)NC=O
Result string: 1.03

* * *

# normalized growth per entry
experiment: chemical genetic growth profiling, strain panel (AID 1159580);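 also: tested at 20 µM; growth read once vehicle control cultures reached saturation at 30 °C; 1 = growth at the plate median or of vehicle wells; lower values mean less growth of the strain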; details: S. cerevisiae deletion strains, growth OD, locus YML094W, strain GIM5, active compounds read low
About 2,000 (36%) of roughly 5,500 compounds were called active. About 18% were inconclusive and are not listed. The list shows a part of the results.
Please state the value as a number alone, without comment.

CCCCCCCCCCCCN1CNC(=S)NC1; 0.513
Cc1oc(C(C)(C)C)cc1C(=O)Nc1ccc([N+](=O)[O-])cc1; 0.873
S=C1NCN(CCN2CCCC2)CN1; 1
N#CCCN(CC1CCCO1)C(=S)Nc1cc(C(F)(F)F)cc(C(F)(F)F)c1 (stereo not given); 0.888

Now examine the next entry.
Query string: Give normalized growth for the following molecule: Cn1c2c(c(=O)n(C)c1=O)CN(CCCCCCO)CN2
Result string: 1.05

* * *

assay: chemical genetic growth profiling, strain panel (AID 1159580);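 also: tested at 20 µM; growth read once vehicle control cultures reached saturation at 30 °C; 1 = growth at the plate median or of vehicle wells; lower values mean less growth of the strain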; conditions: S. cerevisiae deletion strains, growth OD, locus YLL041C, strain sdh2, active compounds read low
In all, about 5,500 compounds went through this assay and about 2,000 (36%) were called active. Another 18% or so got no clear call; they are omitted. This is one part of the list.
# normalized growth per entry
Please state the value as a number alone, without comment.

O=S(=O)(O)CCS; 1

Now examine the next entry.
Query string: Give normalized growth for the following compound: CC[C@@H](C(=O)C(C)[C@@H](O)[C@H](C)CCc1ccc(C)c(O)c1C(=O)O)C1OC(CC)(C2CC[C@](O)(CC)[C@H](C)O2)C[C@@H]1C (some centres undefined)
Result string: 1.05
